// SPOT intensity lookup, one value per entry
Target Or System: GST
Test Details: SPOT array
Applied Conditions: median of control spots 978
Respond using a number only.

Exercise: Could you tell me which SPOT intensity is on file for FSRRQSMDIPSKNRN ?
Key: 1

Exercise: Item under review: KRKRRLPVSEDTNTK . Reported SPOT intensity?
Key: 6

Exercise: Using the record for VNIPSPSSSPPPIPK , report its SPOT intensity.
Key: 0

Exercise: // lookup SPOT intensity for VPKEPAPAPPPEPDM
Key: 0
